As shown below, each of these compounds has a reported TGI value.
Tested on: RXF 393 renal
PROCEDURE_DETAILS: NCI tumour cell line growth inhibition, 48 h

{"COMPOUND": "O=[N+]([O-])c1cccc2c(N=Nc3ccc4ccccc4c3O)c(O)cc(S(=O)(=O)O)c12", "MEASURED_RESULT": "> 100 µM"}
{"COMPOUND": "C/C(=C\\CO)CC/C=C(\\C)CNc1ccc([N+](=O)[O-])cc1", "MEASURED_RESULT": "> 100 µM"}
{"COMPOUND": "O=C1c2cccc(O)c2C(=O)c2c(OC3OC(CO)C(O)C(O)C3O)cccc21 (stereo not given)", "MEASURED_RESULT": "97.3 µM"}
{"COMPOUND": "CN1c2ccccc2SC2C(c3ccccc3)=NOC21 (stereo not given)", "MEASURED_RESULT": "> 100 µM"}

We next turn to a different compound, shown below.
Measured TGI of O=[N+]([O-])c1ccc(-c2cc3c(Nc4ccc(Cl)c(C(F)(F)F)c4)ncnc3s2)cc1 : 6.19 µM

---

Tested on: SN12C renal
PROCEDURE_DETAILS: NCI tumour cell line growth inhibition, 48 h
As shown below, each of these molecules has a reported TGI value.
Answer format: numeric, µM implied, no suffix.

Measured TGI of C=C1C(=O)C23C(O)CC4C5(C)CCCC4(C(O)OC5)C2C(OC(C)=O)CC1C3O (stereo unspecified) : 24.3

Measured TGI of COc1cccc2c(=O)c3c(sc12)c(NCCCNCCO)nc1ccccc13 : 3.06

Measured TGI of O=[N+]([O-])c1ccc2c(c1)c(N=NC(=S)Nc1ccc(Cl)cc1)c(O)n2CN1CCOCC1 : 15.7

Measured TGI of C=CC(=O)N1C/C(=C\c2ccc(Cl)cc2)C(=O)/C(=C/c2ccc(Cl)cc2)C1 : 0.704

Measured TGI of COc1ccc(C2c3cc4c(cc3OC(NCCO)C2C)OCO4)cc1 (stereo unspecified) : 71.7

---

As shown below, each of these compounds has a reported TGI value.
System: NCI/ADR-RES ovarian
PROCEDURE_DETAILS: NCI tumour cell line growth inhibition, 48 h

Worked examples, 3 compounds total:
{"COMPOUND": "c1ccc(C2CC(=NC3CCCCC3)Nc3ccccc3N2)cc1 (stereo not drawn)", "REPORTED_METRIC": "TGI", "MEASURED_RESULT": "> 100 µM"}
{"COMPOUND": "COC1C(O)C(O[C@H]2CC[C@@]3(C)C(CC[C@@H]4[C@@H]3CC[C@]3(C)[C@@H](C(C)OC5OC(CO)C(O)C(O)C5O)CC[C@]43O)C2)OC(C)C1OC1OC(CO)C(O)C(O)C1O (stereo partly drawn)", "REPORTED_METRIC": "TGI", "MEASURED_RESULT": "> 100 µM"}
{"COMPOUND": "CC(=Nc1ccc(S(N)(=O)=O)cc1)c1c(O)[nH]c2ccccc12", "REPORTED_METRIC": "TGI", "MEASURED_RESULT": "> 25 µM"}

We next turn to a different compound, shown below.
Measured TGI of CCN(CC)CCO/N=C1\CC[C@H]2[C@@H]3CCc4cc(OC)ccc4[C@H]3CC[C@]12C : 23.9 µM
